# GI50 per entry
- System: RXF 393
- assay.notes: NCI tumour cell line growth inhibition, 48 h
The source made the active and inactive calls. No stated cut-off is given here; in the data, active = GI50 up to about 1.1 µM and inactive = higher.

Example entries and their recorded answers appear below.
>>> print(df.to_string())
                                   compound  measure               result
0  CC1CC(C#N)=C2NCCCCN2C1=O (stereo not given)     GI50  > 100 µM (inactive)
1  O=C1Nc2cc([N+](=O)[O-])ccc2N/C1=C/C(=O)c1ccc(Cl)cc1     GI50   3.39 µM (inactive)

Next, consider the following compound.
Enquiry: Can you share its GI50? I mean this compound: CCC(=O)OC1CCn2c1nc1c2C(=O)C(C)=C(N2CC2)C1=O (stereo not given)
Return: 0.0565 µM (active)

---

- Test system: SN12C
- assay.notes: NCI tumour cell line growth inhibition, 48 h
Activity calls are given as the source filed them. No stated cut-off is given here; in the data, active = GI50 up to about 1.1 µM and inactive = higher.
# GI50 per entry

Enquiry: Can you share its GI50? I mean this molecule: O=C1c2[nH]c3ccc(Br)cc3c2CCN1Cc1ccc(Cl)cc1
Return: 19.3 µM (inactive)

Enquiry: // next record CCOC(=O)C1(CC(=O)O)CCCC1=O (stereo unspecified)
Return: > 100 µM (inactive)

Enquiry: // next record COc1ccc(/C=C2\SC(c3ccc(OC)cc3)N(NC(=O)Cc3ccccc3)C2=O)cc1 (stereo unspecified)
Return: > 100 µM (inactive)

Enquiry: // next record C=CCSC1=N/C(=C\c2ccccc2)C(=O)N1CC=C
Return: 36.2 µM (inactive)

Enquiry: // next record CC1=C(/C=C/C(C)=C/C=C/C(C)=C/C=C/C=C(C)/C=C/C=C(C)/C=C/C2=C(C)C(=O)C(O)CC2(C)C)C(C)(C)CC(O)C1=O (stereo unspecified)
Return: > 100 µM (inactive)

Enquiry: // next record O=C1C(Cl)=C(N2CCN(c3ncccn3)CC2)C(=O)c2c(O)ccc(O)c21
Return: 1.85 µM (inactive)

Enquiry: // next record CC1(C)C(=O)C(=Cc2ccco2)C1=O
Return: > 100 µM (inactive)

Enquiry: // next record NC(=O)N(O)c1cccc(Br)c1
Return: > 100 µM (inactive)

Enquiry: // next record COc1cccc(C2SCC(=O)N2c2ccc(-c3ccc(-n4c(-c5ccccc5)nc5ccccc5c4=O)cc3)cc2)c1OC (stereo unspecified)
Return: > 100 µM (inactive)

Enquiry: // next record CC(=O)OC1C2CCC3CC2C2(SCCS2)C31 (stereo unspecified)
Return: > 100 µM (inactive)

Enquiry: // next record O=C(NNC(=O)c1ccccc1O)c1ccco1
Return: > 100 µM (inactive)

Enquiry: // next record O=C1/C(=C\c2cccc(Oc3ccccc3)c2)S(=O)(=O)C(c2ccccc2)N1c1cccc(Cl)c1 (stereo unspecified)
Return: 54.8 µM (inactive)

Enquiry: // next record Cc1nc(SCC(=O)Nc2ccccc2)c2sc(=S)n(-c3ccccc3)c2n1
Return: > 10 µM (inactive)

Enquiry: // next record CN(C)c1n/c(=N/Cc2ccco2)ss1
Return: 31.6 µM (inactive)

Enquiry: // next record O=C(NCCc1ccccc1)c1c(O)nc2ccccc2c1O
Return: > 100 µM (inactive)

---

- Test system: MOLT-4
- assay.notes: NCI tumour cell line growth inhibition, 48 h
The source made the active and inactive calls. No stated cut-off is given here; in the data, active = GI50 up to about 1.1 µM and inactive = higher.
Use one of these outcomes when replying: active, inactive

# count of solved cases: 2
                                   compound  class_label
0  CC(C)(CC(O)C#N)/[N+]([O-])=[N+](\[O-])C(C)(C)CC(O)C#N (stereo not given)     inactive
1  O=C(CSc1nnc(-c2ccc(/N=C\c3ccc(Cl)cc3)cc2)o1)Nc1ccccc1[N+](=O)[O-]     inactive

Enquiry: State the result this test recorded for CS(=O)(=O)N(CCC#N)c1ccc(/C=C2\N=C(c3ccccc3Cl)OC2=O)cc1 .
Return: inactive

Enquiry: // next record COC(=O)C(Cc1ccccc1)NC(=O)C(CCC(=O)OCc1ccccc1)NC(=O)OC(C)(C)C (stereo not given)
Return: inactive

---

# GI50 per entry
- Test system: SF-268
- assay.notes: NCI tumour cell line growth inhibition, 48 h
The source made the active and inactive calls. Rule as the data show it: active = GI50 up to about 1.1 µM and inactive = higher.

Example entries and their recorded answers appear below.
compound	measured.on	GI50
CCSC1=N/C(=C\c2ccco2)C(=O)N1	SF-268	> 100 µM (inactive)
CC(=O)OCC1OC(n2cnc(C(N)=S)c2N)C(OC(C)=O)C1OC(C)=O (stereo unspecified)	SF-268	> 100 µM (inactive)
CC1=C(C)C(=O)OC(C(C)(O)C2(O)CCC3(O)C4CC(Cl)C5(O)C(O)C=CC(=O)C5(C)C4CCC32C)C1 (stereo unspecified)	SF-268	48.1 µM (inactive)
CCN(CC)c1ccc(/C=c2\nc(-c3ccccc3)n3c2nc2ccccc23)cc1	SF-268	26.5 µM (inactive)
COc1ccc(CC(C)N)cc1 (stereo unspecified) [PARA-METHOXYAMPHETAMINE]	SF-268	> 100 µM (inactive)

Enquiry: Can you share its GI50? I mean this compound: C=C1COC(O)(C2OCOC(C3CC(=O)NC(=O)C3)C2O)C1C (stereo unspecified)
Return: 0.00511 µM (active)

---

- Test system: MDA-N
- assay.notes: NCI tumour cell line growth inhibition, 48 h
Calls of active or inactive are those of the source. Rule as the data show it: active = GI50 up to about 1.1 µM and inactive = higher.
Use one of these outcomes when replying: 1.0 (active), 0.0 (inactive)

# count of solved cases: 6
>>> print(df.to_string())
                                   compound  measured_on  class_label
0  CN(Cc1cnc2nc(N)nc(N)c2n1)c1ccc(C(=O)NC(CCS(=O)(=O)O)C(=O)O)cc1 (stereo unspecified)        MDA-N          1.0
1  O=c1[nH]c(=S)[nH]c2c(C3OC(CO)C(O)C3O)nsc12 (stereo unspecified)        MDA-N          0.0
2  CC(C)[S+]1C2=C(CC(C)(C)CC2=O)[N-]c2ccccc21 (stereo unspecified)        MDA-N          0.0
3        OC(NN=C1CCCC1)(C(F)(F)Cl)C(F)(F)Cl        MDA-N          0.0
4  CC(C)C(Nc1ncnc2nc[nH]c12)C(=O)O (stereo unspecified)        MDA-N          0.0
5  O=c1[nH]c(=O)n(C2OC(CO)C(O)C2O)c2nc(-c3ccc(-c4ccccc4)cc3)cnc12 (stereo unspecified)        MDA-N          0.0

Enquiry: State the result this test recorded for COC(CNC(=O)C(C)NC(=O)CCc1ccccc1)OC (stereo unspecified) .
Return: 0.0

Enquiry: // next record COc1ccc(N2NC(c3ccccc3)(c3ccccc3)C(C)C2=O)cc1 (stereo unspecified)
Return: 0.0

Enquiry: // next record O=c1oc2ccccc2cc1-c1nc2ccc([N+](=O)[O-])cc2o1
Return: 0.0

Enquiry: // next record CN(C)CCCn1c2ccccc2c2cnccc21
Return: 0.0

Enquiry: // next record N=C(N)N/N=C/c1c(Cl)nc2n1CCS2
Return: 0.0

Enquiry: // next record COc1ccc(OC)c(C[P+](c2ccccc2)(c2ccccc2)c2ccccc2)c1
Return: 1.0

---

- System: HOP-92
- assay.notes: NCI tumour cell line growth inhibition, 48 h
The source made the active and inactive calls. Rule as the data show it: active = GI50 up to about 1.1 µM and inactive = higher.
measure: GI50

Enquiry: Recall the recorded GI50 for COc1cc(CC2CCc3nc(N)nc(N)c3C2)cc(OC)c1OC (stereo unspecified) with HOP-92 and state it.
Return: 26.5 µM (inactive)

Enquiry: // next record CCOC(=O)/C(=C/c1ccc(Cl)cc1)N(CC)CC
Return: 74.1 µM (inactive)

Enquiry: // next record O=C(CCc1nnc(S)[nH]1)NC12CC3CC(CC(C3)C1)C2
Return: > 100 µM (inactive)

Enquiry: // next record O=P(c1ccccc1)(c1ccccc1)C1CC=C2CCCCCC2C1 (stereo unspecified)
Return: 11 µM (inactive)

---

- System: UACC-257
- assay.notes: NCI tumour cell line growth inhibition, 48 h
Active and inactive are the calls of the source. Cut-off read from the data, not from the text of the source: active = GI50 up to about 1.1 µM and inactive = higher.
measure: GI50

>>> df
                      compound               result
0  c1csc(-c2cc(-c3ccsc3)cs2)c1  > 100 µM (inactive)

Next, consider the following compound.
Enquiry: Can you share its GI50? I mean this compound: COC(=O)C(=O)C(C#N)c1ccc(CC#N)cc1 (stereo unspecified)
Return: > 100 µM (inactive)

---

- Test system: U-251
- assay.notes: NCI tumour cell line growth inhibition, 48 h
Active and inactive are the calls of the source. Rule as the data show it: active = GI50 up to about 1.1 µM and inactive = higher.
Use one of these outcomes when replying: active, inactive

compound	class.label
Oc1cc(-c2cccc(OC(F)(F)F)c2)nc2ccc(N3CCCC3)cc12	active

Please turn your attention to the following entry.
Enquiry: State the result this test recorded for C1=C(c2ccccc2)CN(c2ccccc2)OC1 .
Return: inactive

src = ChEMBL document CHEMBL1201862
